# System name: PD-1/PD-L1 protein/protein interaction (Homo sapiens (Human))
# Sequence (Q9NZQ7 19-238): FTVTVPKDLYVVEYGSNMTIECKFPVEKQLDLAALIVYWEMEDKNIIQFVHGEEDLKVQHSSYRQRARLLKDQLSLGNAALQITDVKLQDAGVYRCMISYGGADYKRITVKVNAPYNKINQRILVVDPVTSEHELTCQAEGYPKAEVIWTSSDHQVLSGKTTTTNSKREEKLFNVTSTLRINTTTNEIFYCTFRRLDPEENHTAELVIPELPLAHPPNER
# Protocol: PD-1/PD-L1 Homogeneous Time-Resolved Fluorescence (HTRF) Binding Assay
# Condition details: recombinant human PD-L1 (19-238) His-tag 10 nM, human PD-1 (25-167) Fc tag 3 nM; 25° C., PBS pH 7.4
pIC50: −log10 of the molar value.
Recorded measurements of pIC50, one per entry

The cases that follow already have their pIC50 on record.
CCn1cc(CNCCO)cc(C(=O)Nc2cccc(-c3ccccc3)c2C)c1=O	6.30 to 7.00
Cn1cc(CNCCO)cc(C(=O)Nc2cccc(-c3cccc4c3cnn4C)c2C#N)c1=O	≥ 7.00
Cc1c(NC(=O)c2cc(CNCCO)cn(C)c2=O)cccc1-c1ccc2c(c1)OCCO2	≥ 7.00
Cc1c(NC(=O)c2cc(CN3CCCC[C@H]3C(=O)O)cn(C)c2=O)cccc1-c1ccccc1	≥ 7.00
Cn1cc(CNCCO)cc(C(=O)Nc2cccc(-c3ccccc3F)c2C#N)c1=O	≥ 7.00
Cn1cc(CNCCO)cc(C(=O)Nc2cccc(-c3ccccc3)c2C#N)c1=O	6.30 to 7.00
Cn1cc(CNCCO)cc(C(=O)Nc2cccc(-c3ccc4c(c3)OCCO4)c2C#N)c1=O	≥ 7.00
COc1cccc(-c2cccc(NC(=O)c3cc(CNCCO)cn(C)c3=O)c2C)c1F	≥ 7.00

Which pIC50 reading was recorded for the compound CCn1cc(CN2CCCC[C@H]2C(=O)O)cc(C(=O)Nc2cccc(-c3ccccc3)c2C)c1=O ?
5.00 to 6.30

Recorded pIC50 of Cn1cc(CNCCO)cc(C(=O)Nc2cccc(C3CCCCC3)c2C#N)c1=O , please.
6.30 to 7.00

Requested field: pIC50. Item: COc1cccc(-c2cccc(NC(=O)c3cc(CNCCO)cn(C)c3=O)c2C#N)c1
≥ 7.00

Looking for the measured pIC50 of Cc1c(NC(=O)c2cc(CNCCO)cn(C)c2=O)cccc1-c1cccc2c1cnn2C , can you help?
≥ 7.00

For the compound shown here, Cc1c(NC(=O)c2cc(CNCCO)cn(C)c2=O)cccc1-c1ccccc1 , give the reported pIC50.
≥ 7.00
